# TEST_DETAILS: qHTS assay to identify small molecule agonists of the vitamin D receptor (VDR) signaling pathway - cell viability counter screen (AID 743224); note: nearly all actives have a fitted effect of over 50% in size
# TEST_CONTEXT: VDR-bla HEK293T viability, CellTiter-Glo luminescence, 16 h; series mostly up to 62.6 µM
Inconclusive results are not listed. The source made the active and inactive calls. Calls come from the whole dose curve; as a rule, active = well fitted cell-killing curve with a large enough effect in the repeat runs; inconclusive = weak or mixed curves, or effect the other way; inactive = no such curve, though single readings can be large or run the other way.
// one of active, inactive, no free text

# MOLECULE, DISCRETE_LABEL
data = [
    ("O=C(CCCN1CCC(n2c(=O)[nH]c3ccccc32)CC1)c1ccc(F)cc1", "inactive"),
]

Task item: Each molecule tested received a call. Report the one for CC(C)NCC(O)c1ccc(N)c(C#N)c1 (centres undefined) .
Reply: inactive

Task item: Now try Oc1c(Cl)cccc1Cl .
Reply: inactive
